Answer each item with its documented IC50.
- System: TACE (Homo sapiens)
- Construct: made in house; host or cells: mammalian cells or insect cells
- Sequence (P78536 215-824): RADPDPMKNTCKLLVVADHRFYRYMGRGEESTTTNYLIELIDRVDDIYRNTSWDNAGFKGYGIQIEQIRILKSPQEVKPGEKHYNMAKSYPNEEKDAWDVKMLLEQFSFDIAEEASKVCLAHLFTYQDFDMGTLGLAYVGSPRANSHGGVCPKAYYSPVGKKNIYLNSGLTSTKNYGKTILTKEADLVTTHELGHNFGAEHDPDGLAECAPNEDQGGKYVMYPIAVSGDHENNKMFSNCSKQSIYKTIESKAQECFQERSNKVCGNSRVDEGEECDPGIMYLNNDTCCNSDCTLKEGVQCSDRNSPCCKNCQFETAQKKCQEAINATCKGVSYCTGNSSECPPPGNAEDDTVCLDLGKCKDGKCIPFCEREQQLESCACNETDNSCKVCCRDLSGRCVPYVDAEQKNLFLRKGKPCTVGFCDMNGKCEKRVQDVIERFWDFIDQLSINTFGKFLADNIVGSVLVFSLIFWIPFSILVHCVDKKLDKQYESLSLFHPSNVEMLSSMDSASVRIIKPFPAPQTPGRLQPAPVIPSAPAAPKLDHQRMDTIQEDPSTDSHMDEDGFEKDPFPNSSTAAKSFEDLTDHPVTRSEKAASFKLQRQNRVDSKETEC
- Measurement notes: TACE inhibition experiment (in vitro)
- Format: biochemical
Report as: number unit

Any idea what its IC50 is? The compound is Cc1cc(Cl)cc(COc2ccc(S(=O)(=O)CC(CC3CCC(=O)CC3)N(O)C=O)cc2)c1 (stereo not drawn)
120 nM

Entry CCC(CC)C(=O)N1CCC(CC(CS(=O)(=O)c2ccc(OCc3cc(C)nc4ccc(C)cc34)cc2)N(O)C=O)CC1 (stereo not drawn) : reported IC50 = ?
11 nM

Using the record for Cc1cc(COc2ccc(S(=O)(=O)CC(c3ccccc3C)N(O)C=O)cc2)c2cccc(F)c2n1 (stereo not drawn) , report its IC50.
6 nM

I'd like to know its IC50. The compound in question is COCc1cc(COc2ccc(S(=O)(=O)CC(C=C3CCOCC3)N(O)C=O)cc2)cc(C)n1 (stereo not drawn)
160 nM

Fill in: IC50 of COc1ccc(CN2C(=O)SCC2C(CS(=O)(=O)c2ccc(OCc3cc(C)nc4ccccc34)cc2)N(O)C=O)cc1 (stereo not drawn) is ___
10 nM

Would you mind telling me what IC50 value was observed for CCC(CC)C(=O)N1CCC(=CC(CS(=O)(=O)c2ccc(OCc3cc(C)nc4ccc(C)cc34)cc2)N(O)C=O)CC1 (stereo not drawn) ?
5 nM

Any idea what its IC50 is? The compound is COCc1cc(COc2ccc(S(=O)(=O)CC(C=C3CCC4(CC3)OCCO4)N(O)C=O)cc2)cc(C)n1 (stereo not drawn)
230 nM

For the compound shown here, O=CON=C1CCC(=CC(CS(=O)(=O)c2ccc(OCc3ccc4ccccc4n3)cc2)N(O)C=O)CC1 (stereo not drawn) , give the reported IC50.
360 nM

Which IC50 is listed for CCC(CC)C(=O)N1CCC(C(CS(=O)(=O)c2ccc(OCc3cc(C)nc4ccccc34)cc2)N(O)C=O)CC1 (stereo not drawn) ?
23 nM

# get_value(readout='IC50', item= Cc1ccc(C(CS(=O)(=O)c2ccc(OCc3cc(C)nc4ccccc34)cc2)N(O)C=O)cn1 (stereo not drawn) )
2.5 nM

Look at this compound and give its reported IC50. O=CN(O)C(CC1CCC2(CC1)OCCO2)CS(=O)(=O)c1ccc(OCc2ccc3ccccc3n2)cc1 (stereo not drawn)
5700 nM

Field request: IC50 | item: CCC(CC)CN1CCC(=CC(CS(=O)(=O)c2ccc(OCc3cc(C)nc4ccccc34)cc2)N(O)C=O)CC1 (stereo not drawn)
7.8 nM

Recorded IC50 for COCc1cc(COc2ccc(S(=O)(=O)CC(CC3CCC4(CC3)OCCO4)N(O)C=O)cc2)cc(C)n1 (stereo not drawn) , please?
360 nM

Returns the measured IC50 for the input compound. Input: Cc1ccc(CCCC(CS(=O)(=O)c2ccc(OCc3cc(C)nc4ccccc34)cc2)N(O)C=O)cc1 (stereo not drawn)
170 nM

Look up IC50 for this compound: Cc1ccc(C(CS(=O)(=O)c2ccc(OCc3cc(C)nc4ccc(F)cc34)cc2)N(O)C=O)cn1 (stereo not drawn)
5.1 nM

Would you mind telling me what IC50 value was observed for Cc1ccccc1C(CS(=O)(=O)c1ccc(OCc2ccc3ccccc3n2)cc1)N(O)C=O (stereo not drawn) ?
3500 nM

# lookup: IC50 of Cc1cc(COc2ccc(S(=O)(=O)CC(CC3CCC(=NO)CC3)N(O)C=O)cc2)cc(C)n1 (stereo not drawn)
63 nM

What value of IC50 has been reported for the following compound? Cc1cncc(C(CS(=O)(=O)c2ccc(OCc3cc(C)nc4ccc(F)cc34)cc2)N(O)C=O)c1 (stereo not drawn)
4.5 nM

Field request: IC50 | item: COCOC1CCC(C)(C(CS(=O)(=O)c2ccc(OCc3cc(C)nc4ccccc34)cc2)N(O)C=O)CC1 (stereo not drawn)
32 nM

Name the reported IC50 value associated with the compound Cc1cccc(C(CS(=O)(=O)c2ccc(OCc3cc(C)nc4ccccc34)cc2)N(O)C=O)n1 (stereo not drawn)
4 nM

Suppose we examine the compound CCN1CCCC(CC(CS(=O)(=O)c2ccc(OCc3cc(C)nc4ccccc34)cc2)N(O)C=O)C1 (stereo not drawn) ; what IC50 value has been reported?
26 nM
